Data origin, for the record: paper PMC3961306

molecular target: panel of more than 300 wild-type and mutant kinases (313 kinase panel) (Homo sapiens, UniProt P51451); test: Kinase profiling in a biochemical assay panel (mobility shift assays and ELISA), %-inhibition at 1 μM; selectivity entropy; conditions: kinase BLK; 1 μM compound
Sequence (P51451 whole entry, change not shown): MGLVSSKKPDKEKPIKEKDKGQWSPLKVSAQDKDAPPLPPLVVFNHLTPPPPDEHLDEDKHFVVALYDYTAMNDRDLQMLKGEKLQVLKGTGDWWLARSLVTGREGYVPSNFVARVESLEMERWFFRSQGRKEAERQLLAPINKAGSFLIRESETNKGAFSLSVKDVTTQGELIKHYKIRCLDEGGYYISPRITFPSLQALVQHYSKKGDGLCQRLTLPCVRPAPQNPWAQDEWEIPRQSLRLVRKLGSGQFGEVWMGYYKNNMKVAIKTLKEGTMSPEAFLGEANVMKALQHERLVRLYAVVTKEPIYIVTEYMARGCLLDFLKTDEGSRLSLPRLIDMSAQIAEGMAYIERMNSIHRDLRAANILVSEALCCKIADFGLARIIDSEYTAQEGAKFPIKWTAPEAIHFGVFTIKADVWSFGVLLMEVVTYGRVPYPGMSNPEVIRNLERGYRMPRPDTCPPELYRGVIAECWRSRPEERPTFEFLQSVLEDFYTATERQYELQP
Assay readout: %-inhibition, BLK (%)
Reply with just the number (in %).

Exercise: Which %-inhibition, BLK reading was recorded for the compound COc1cc(Nc2c(C#N)cnc3cc(OCCCN4CCN(C)CC4)c(OC)cc23)c(Cl)cc1Cl ?
Solution: 84

Exercise: Which %-inhibition, BLK reading was recorded for the compound CC(C)(C)c1nc(-c2cccc(NS(=O)(=O)c3c(F)cccc3F)c2F)c(-c2ccnc(N)n2)s1 ?
Solution: 80

Exercise: Which %-inhibition, BLK reading was recorded for the compound Cc1nc(Nc2ncc(C(=O)Nc3c(C)cccc3Cl)s2)cc(N2CCN(CCO)CC2)n1 ?
Solution: 103

Exercise: Which %-inhibition, BLK reading was recorded for the compound CC(=O)Nc1cccc(-n2c(=O)n(C3CC3)c(=O)c3c(Nc4ccc(I)cc4F)n(C)c(=O)c(C)c32)c1 ?
Solution: -2.79

Exercise: Which %-inhibition, BLK reading was recorded for the compound CNC(=O)c1cc(Oc2ccc(NC(=O)Nc3ccc(Cl)c(C(F)(F)F)c3)c(F)c2)ccn1 ?
Solution: 25

Exercise: Which %-inhibition, BLK reading was recorded for the compound N#CC[C@H](C1CCCC1)n1cc(-c2ncnc3[nH]ccc23)cn1 ?
Solution: -1

* * *

Please provide measured %-inhibition of FGFR4 for the entries that follow.
biological target: panel of more than 300 wild-type and mutant kinases (313 kinase panel) (Homo sapiens); test: Kinase profiling in a biochemical assay panel (mobility shift assays and ELISA), %-inhibition at 1 μM; selectivity entropy; conditions: kinase FGFR4; compound at 1 μM
Reply with just the number (in %).

Exercise: Which %-inhibition of FGFR4 reading was recorded for the compound CS(=O)(=O)CCNCc1ccc(-c2ccc3ncnc(Nc4ccc(OCc5cccc(F)c5)c(Cl)c4)c3c2)o1 [lapatinib] ?
Solution: 0.821

Exercise: Which %-inhibition of FGFR4 reading was recorded for the compound COc1cc2c(Nc3ccc(Br)cc3F)ncnc2cc1OCC1CCN(C)CC1 [vandetanib] ?
Solution: 31

Exercise: Which %-inhibition of FGFR4 reading was recorded for the compound CCCS(=O)(=O)Nc1ccc(F)c(C(=O)c2c[nH]c3ncc(-c4ccc(Cl)cc4)cc23)c1F [vemurafenib] ?
Solution: 5

Exercise: Which %-inhibition of FGFR4 reading was recorded for the compound CNC(=O)c1cc(Oc2ccc(NC(=O)Nc3ccc(Cl)c(C(F)(F)F)c3)c(F)c2)ccn1 [regorafenib] ?
Solution: 33

Exercise: Which %-inhibition of FGFR4 reading was recorded for the compound COc1cc2nccc(Oc3ccc(NC(=O)C4(C(=O)Nc5ccc(F)cc5)CC4)cc3)c2cc1OC [cabozantinib] ?
Solution: 8

Exercise: Which %-inhibition of FGFR4 reading was recorded for the compound Cc1cn(-c2cc(NC(=O)c3ccc(C)c(Nc4nccc(-c5cccnc5)n4)c3)cc(C(F)(F)F)c2)cn1 [nilotinib] ?
Solution: -7.46

Exercise: Which %-inhibition of FGFR4 reading was recorded for the compound N#CC[C@H](C1CCCC1)n1cc(-c2ncnc3[nH]ccc23)cn1 [ruxolitinib] ?
Solution: 6

Exercise: Which %-inhibition of FGFR4 reading was recorded for the compound Cc1ccc(C(=O)Nc2ccc(CN3CCN(C)CC3)c(C(F)(F)F)c2)cc1C#Cc1cnc2cccnn12 [ponatinib] ?
Solution: 98

Exercise: Which %-inhibition of FGFR4 reading was recorded for the compound CO[C@H]1C[C@@H]2CC[C@@H](C)[C@@](O)(O2)C(=O)C(=O)N2CCCC[C@H]2C(=O)O[C@H]([C@H](C)C[C@@H]2CC[C@@H](OCCO)[C@H](OC)C2)CC(=O)[C@H](C)/C=C(\C)[C@@H](O)[C@@H](OC)C(=O)[C@H](C)C[C@H](C)/C=C/C=C/C=C/1C [everolimus] ?
Solution: -7.59

Exercise: Which %-inhibition of FGFR4 reading was recorded for the compound C[C@@H](Oc1cc(-c2cnn(C3CCNCC3)c2)cnc1N)c1c(Cl)ccc(F)c1Cl [crizotinib] ?
Solution: 0

Exercise: Which %-inhibition of FGFR4 reading was recorded for the compound CO[C@H]1C[C@@H]2CC[C@@H](C)[C@@](O)(O2)C(=O)C(=O)N2CCCC[C@H]2C(=O)O[C@H]([C@H](C)C[C@@H]2CC[C@@H](OC(=O)C(C)(CO)CO)[C@H](OC)C2)CC(=O)[C@H](C)/C=C(\C)[C@@H](O)[C@@H](OC)C(=O)[C@H](C)C[C@H](C)/C=C/C=C/C=C/1C [temsirolimus] ?
Solution: -4.51

Exercise: Which %-inhibition of FGFR4 reading was recorded for the compound CC(=O)Nc1cccc(-n2c(=O)n(C3CC3)c(=O)c3c(Nc4ccc(I)cc4F)n(C)c(=O)c(C)c32)c1 [trametinib] ?
Solution: -3

Exercise: Which %-inhibition of FGFR4 reading was recorded for the compound CC(C)(C)c1nc(-c2cccc(NS(=O)(=O)c3c(F)cccc3F)c2F)c(-c2ccnc(N)n2)s1 [dabrafenib] ?
Solution: 19

Exercise: Which %-inhibition of FGFR4 reading was recorded for the compound COc1cc(Nc2c(C#N)cnc3cc(OCCCN4CCN(C)CC4)c(OC)cc23)c(Cl)cc1Cl [bosutinib] ?
Solution: 2.67

* * *

biological target: panel of more than 300 wild-type and mutant kinases (313 kinase panel) (Homo sapiens, UniProt Q9NWZ3); test: Kinase profiling in a biochemical assay panel (mobility shift assays and ELISA), %-inhibition at 1 μM; selectivity entropy; details: kinase IRAK4; compound at 1 μM
Please provide measured %-inhibition of IRAK4 for the entries that follow.
Reply with just the number (in %).

Exercise: Which %-inhibition of IRAK4 reading was recorded for the compound CO[C@H]1C[C@@H]2CC[C@@H](C)[C@@](O)(O2)C(=O)C(=O)N2CCCC[C@H]2C(=O)O[C@H]([C@H](C)C[C@@H]2CC[C@@H](OCCO)[C@H](OC)C2)CC(=O)[C@H](C)/C=C(\C)[C@@H](O)[C@@H](OC)C(=O)[C@H](C)C[C@H](C)/C=C/C=C/C=C/1C [everolimus] ?
Solution: -6

Exercise: Which %-inhibition of IRAK4 reading was recorded for the compound COc1cc(Nc2c(C#N)cnc3cc(OCCCN4CCN(C)CC4)c(OC)cc23)c(Cl)cc1Cl [bosutinib] ?
Solution: 27

Exercise: Which %-inhibition of IRAK4 reading was recorded for the compound Cc1cn(-c2cc(NC(=O)c3ccc(C)c(Nc4nccc(-c5cccnc5)n4)c3)cc(C(F)(F)F)c2)cn1 [nilotinib] ?
Solution: -29

* * *

target: panel of more than 300 wild-type and mutant kinases (313 kinase panel) (Homo sapiens); assay: Kinase profiling in a biochemical assay panel (mobility shift assays and ELISA), %-inhibition at 1 μM; selectivity entropy; settings: kinase PKCε; 1 μM
Assay readout: %-inhibition of PKCε
# number then unit; no other words

Exercise: Which %-inhibition of PKCε reading was recorded for the compound Cc1cn(-c2cc(NC(=O)c3ccc(C)c(Nc4nccc(-c5cccnc5)n4)c3)cc(C(F)(F)F)c2)cn1 [nilotinib] ?
Solution: -0.567%

Exercise: Which %-inhibition of PKCε reading was recorded for the compound CO[C@H]1C[C@@H]2CC[C@@H](C)[C@@](O)(O2)C(=O)C(=O)N2CCCC[C@H]2C(=O)O[C@H]([C@H](C)C[C@@H]2CC[C@@H](OCCO)[C@H](OC)C2)CC(=O)[C@H](C)/C=C(\C)[C@@H](O)[C@@H](OC)C(=O)[C@H](C)C[C@H](C)/C=C/C=C/C=C/1C [everolimus] ?
Solution: -2.79%

Exercise: Which %-inhibition of PKCε reading was recorded for the compound CC(=O)Nc1cccc(-n2c(=O)n(C3CC3)c(=O)c3c(Nc4ccc(I)cc4F)n(C)c(=O)c(C)c32)c1 [trametinib] ?
Solution: 6%

Exercise: Which %-inhibition of PKCε reading was recorded for the compound O=S(=O)(c1cccc2cnccc12)N1CCCNCC1 [fasudil] ?
Solution: -43%

Exercise: Which %-inhibition of PKCε reading was recorded for the compound CC(C)(C)c1nc(-c2cccc(NS(=O)(=O)c3c(F)cccc3F)c2F)c(-c2ccnc(N)n2)s1 [dabrafenib] ?
Solution: 5%

Exercise: Which %-inhibition of PKCε reading was recorded for the compound CO[C@H]1C[C@@H]2CC[C@@H](C)[C@@](O)(O2)C(=O)C(=O)N2CCCC[C@H]2C(=O)O[C@H]([C@H](C)C[C@@H]2CC[C@@H](OC(=O)C(C)(CO)CO)[C@H](OC)C2)CC(=O)[C@H](C)/C=C(\C)[C@@H](O)[C@@H](OC)C(=O)[C@H](C)C[C@H](C)/C=C/C=C/C=C/1C [temsirolimus] ?
Solution: 4.32%

Exercise: Which %-inhibition of PKCε reading was recorded for the compound N#CC[C@H](C1CCCC1)n1cc(-c2ncnc3[nH]ccc23)cn1 [ruxolitinib] ?
Solution: -2.79%

Exercise: Which %-inhibition of PKCε reading was recorded for the compound Cc1ccc(C(=O)Nc2ccc(CN3CCN(C)CC3)c(C(F)(F)F)c2)cc1C#Cc1cnc2cccnn12 [ponatinib] ?
Solution: 12%

Exercise: Which %-inhibition of PKCε reading was recorded for the compound C[C@@H](Oc1cc(-c2cnn(C3CCNCC3)c2)cnc1N)c1c(Cl)ccc(F)c1Cl [crizotinib] ?
Solution: -7%

Exercise: Which %-inhibition of PKCε reading was recorded for the compound COc1cc2nccc(Oc3ccc(NC(=O)C4(C(=O)Nc5ccc(F)cc5)CC4)cc3)c2cc1OC [cabozantinib] ?
Solution: 3%

Exercise: Which %-inhibition of PKCε reading was recorded for the compound CCCS(=O)(=O)Nc1ccc(F)c(C(=O)c2c[nH]c3ncc(-c4ccc(Cl)cc4)cc23)c1F [vemurafenib] ?
Solution: -8%

Exercise: Which %-inhibition of PKCε reading was recorded for the compound COc1cc2c(Nc3ccc(Br)cc3F)ncnc2cc1OCC1CCN(C)CC1 [vandetanib] ?
Solution: -4%

Exercise: Which %-inhibition of PKCε reading was recorded for the compound CNC(=O)c1cc(Oc2ccc(NC(=O)Nc3ccc(Cl)c(C(F)(F)F)c3)c(F)c2)ccn1 [regorafenib] ?
Solution: -8%

Exercise: Which %-inhibition of PKCε reading was recorded for the compound Cc1ccc(Nc2nccc(N(C)c3ccc4c(C)n(C)nc4c3)n2)cc1S(N)(=O)=O [pazopanib] ?
Solution: -5.38%

Exercise: Which %-inhibition of PKCε reading was recorded for the compound COc1cc(Nc2c(C#N)cnc3cc(OCCCN4CCN(C)CC4)c(OC)cc23)c(Cl)cc1Cl [bosutinib] ?
Solution: -0.711%
